# Test system: Roggen
# ASSAY_NAME: Growth inhibition in cereals, greenhouse tray test, sprayed at 3-leaf stage
# Type: in vivo
# CONDITION_DESCRIPTION: 1,25 kg/ha; % of growth increment of untreated controls; read-out: Wuchsshemmung in % bei Roggen
QUANTITY_KIND: pest or weed control at 1250 g/ha (%)
Number only, in %; omit the unit.

The cases that follow already have their pest or weed control at 1250 g/ha on record.
| SMILES_REPR | UNIT_ANNOTATION | pest or weed control at 1250 g/ha |
| --- | --- | --- |
| CCc1cccc(CC)c1-n1cncc1C(=O)n1cncn1 | % | 15 |
| CCc1cccc(CC)c1-n1cncc1C(=O)NO | % | 21 |
| CCc1cccc(CC)c1-n1cncc1C(=O)NNC(N)=O | % | 21 |

Exam item: Please report the recorded pest or weed control at 1250 g/ha for `CCc1cccc(CC)c1-n1cncc1COCc1ccccc1C` .
Marked response: 15

Exam item: I'd like to know its pest or weed control at 1250 g/ha. The compound in question is `CCc1cccc(CC)c1-n1cncc1C1=NC(C)(C)CO1`
Marked response: 9

Exam item: # query: pest or weed control at 1250 g/ha of entry `CCc1cccc(CC)c1-n1cncc1C(=O)ON=C(C)C`
Marked response: 21

Exam item: For the compound shown here, `CCc1cccc(CC)c1-n1cncc1-c1nnn[nH]1` , give the reported pest or weed control at 1250 g/ha.
Marked response: 9

Exam item: # input compound: `CCc1cccc(CC)c1-n1cncc1C(=O)ON1C(=O)c2ccccc2C1=O` ; wanted: its pest or weed control at 1250 g/ha
Marked response: 21
